Experiment: gradient 5% acetonitrile 3 min, to 50% in 2 min, to 85% in 15 min, held 3 min, 100 µL/min
Conditions: column: Zorbax Extend-C18 2.1 x 50 mm; eluents: water / acetonitrile, 0.1% formic acid
METRIC NAME: RP-LC retention time (s)

Recorded results for 5 compounds are shown here.
[
  {
    "COMPOUND": "Cc1ccc(C(=O)N2CC3CN(S(=O)(=O)c4cccc(F)c4)CC(C2)O3)s1",
    "RP-LC retention time (s)": 821
  },
  {
    "COMPOUND": "O=C(NCc1cc(F)cc(F)c1)c1cn2c(n1)CCCC2",
    "RP-LC retention time (s)": 599
  },
  {
    "COMPOUND": "O=C(Nc1cccc(-c2cn3cccnc3n2)c1)c1c(F)cccc1F",
    "RP-LC retention time (s)": 668
  },
  {
    "COMPOUND": "O=C(Cn1cccc(-c2nc(-c3ccc(Br)cc3)no2)c1=O)Nc1ccc(F)cc1F",
    "RP-LC retention time (s)": 990
  },
  {
    "COMPOUND": "Cc1ccc(Cn2nc3ccc(S(=O)(=O)N4CCCC4)cn3c2=O)cc1C",
    "RP-LC retention time (s)": 952
  }
]

[1] O=C(NCc1ccco1)N1c2ccccc2CC1c1nc(C2CC2)no1 (centres undefined)
[2] O=C(NC1CCN(Cc2ccccc2)CC1)C1CC(=O)N(c2n[nH]c3cccc(F)c23)C1 (centres undefined)
QUERY: Larger number for RP-LC retention time: 1 , or 2 ? Answer by quoting the chosen item's label.
RESULT: 1
